Test system: NCI/ADR-RES ovarian
TEST_NAME: NCI tumour cell line growth inhibition, 48 h
What TGI was measured for each of the following?

[
  {
    "COMPOUND": "CCOC(=O)CON=c1c2ccccc2ccc2ccccc12",
    "TGI": "> 100 µM"
  },
  {
    "COMPOUND": "O=C(O)c1cc2cc(O)ccc2[nH]1",
    "TGI": "> 100 µM"
  },
  {
    "COMPOUND": "CC(C)(C)OC(=O)NC(Cc1ccc(OCc2ccccc2)cn1)C(=O)O (stereo unspecified)",
    "TGI": "> 100 µM"
  },
  {
    "COMPOUND": "Cc1ncc(COP(=O)(O)O)c(C)c1O",
    "TGI": "> 100 µM"
  },
  {
    "COMPOUND": "N#CCN1CCN(CC#N)CCN(CC#N)CCN(CC#N)CC1",
    "TGI": "> 100 µM"
  }
]

I would be grateful if you could provide TGI for each of the following entries.
1. Cc1ccc(N(/C=C/C(=O)C(F)(F)F)CC(=O)c2ccc(Cl)c(Cl)c2)cc1
2. CN(N=O)C(=O)Nc1ccc(C(=O)O)cc1
3. CNC(C)[C@H]1CCC2C3CCC4C[C@@H](N(C)C(=O)c5ccccc5)CC[C@]4(C)C3CC[C@@]21C (stereo partly specified)
4. Cc1cccc2c(N=Nc3ccccc3[N+](=O)[O-])c(O)[nH]c12
5. COc1cc(OC)c2nc(C)c3c(c2c1)OCC3
6. C=CCN1C(=O)/C(=C/c2ccc(OC)cc2)N=C1SC1OC(COC(C)=O)C(OC(C)=O)C(OC(C)=O)C1OC(C)=O (stereo unspecified)

Return:
13.4 µM
> 100 µM
15.5 µM
> 31.4 µM
> 100 µM
> 100 µM

All values here come from PubChem BioAssay (NCI).
